Numbers sourced from the supplement of paper PMC10724198.

# System: Saccharomyces cerevisiae
# assayDetails: protein stability index of tFT-peptide fusion (C-terminal peptide) (PSI (0-1 scale)); higher = more stable (slower turnover);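 note: PSI is a weighted mean of sequencing reads over stability bins, variants kept only with over 10 reads, mCherry proximal and sfGFP distal, peptide attached via GGGS linker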
# experimentalParameters: genetic background: doa10 deletion; temperature: 30 C
measureName: protein stability index
Please reply with the number alone, leaving off any unit.

// worked examples, protein stability index included
{"chainSequence": "HVRLRFQPVLFV", "protein stability index": 0.356}
{"chainSequence": "CFRRPLLRVVLT", "protein stability index": 0.429}

Request: Tell us which protein stability index value is on record for `WSMSSPPLLLAS`
Result: 0.22

====

# Tested on: Saccharomyces cerevisiae
# assayDetails: protein stability index of tFT-peptide fusion (C-terminal peptide) (PSI (0-1 scale)); higher = more stable (slower turnover)
# experimentalParameters: genetic background: wild type; temperature: 30 C
measureName: protein stability index
I only need the number, thanks.

{"chainSequence": "VGGGGSLVVESG", "protein stability index": 0.706}
{"chainSequence": "YTYPINPLDQTR", "protein stability index": 0.72}
{"chainSequence": "VCLVLGGVEWCV", "protein stability index": 0.686}
{"chainSequence": "DRGGCRRAGSCQ", "protein stability index": 0.69}
{"chainSequence": "INPKSGIVVKFR", "protein stability index": 0.679}
{"chainSequence": "PPPPAFPPPLSP", "protein stability index": 0.716}
{"chainSequence": "APSPPTRYLPLF", "protein stability index": 0.684}
{"chainSequence": "APIRRPTCLSEV", "protein stability index": 0.708}
{"chainSequence": "RVRQQKIFPSLD", "protein stability index": 0.706}
{"chainSequence": "PNVAIMSGGQTV", "protein stability index": 0.691}

Request: Let me know recorded protein stability index for `LPLPIPPFPCPP` , thanks.
Result: 0.686

Request: Hello, please tell me recorded protein stability index for this one: `PFRSPSLPYFRL`
Result: 0.712

Request: Look up and state reported protein stability index for `GVGAALDVWRRR`
Result: 0.696

Request: Using known records, supply protein stability index for `PRPPARPPLRLL`
Result: 0.719

Request: Consider the sequence `SPPPPILPCKPL` . State its measured protein stability index.
Result: 0.716
